target-desc: human recombinant HDAC6 (Homo sapiens)
Construct: purchased Calbiochem Inc. 382180
Sequence (Q9UBN7 whole entry): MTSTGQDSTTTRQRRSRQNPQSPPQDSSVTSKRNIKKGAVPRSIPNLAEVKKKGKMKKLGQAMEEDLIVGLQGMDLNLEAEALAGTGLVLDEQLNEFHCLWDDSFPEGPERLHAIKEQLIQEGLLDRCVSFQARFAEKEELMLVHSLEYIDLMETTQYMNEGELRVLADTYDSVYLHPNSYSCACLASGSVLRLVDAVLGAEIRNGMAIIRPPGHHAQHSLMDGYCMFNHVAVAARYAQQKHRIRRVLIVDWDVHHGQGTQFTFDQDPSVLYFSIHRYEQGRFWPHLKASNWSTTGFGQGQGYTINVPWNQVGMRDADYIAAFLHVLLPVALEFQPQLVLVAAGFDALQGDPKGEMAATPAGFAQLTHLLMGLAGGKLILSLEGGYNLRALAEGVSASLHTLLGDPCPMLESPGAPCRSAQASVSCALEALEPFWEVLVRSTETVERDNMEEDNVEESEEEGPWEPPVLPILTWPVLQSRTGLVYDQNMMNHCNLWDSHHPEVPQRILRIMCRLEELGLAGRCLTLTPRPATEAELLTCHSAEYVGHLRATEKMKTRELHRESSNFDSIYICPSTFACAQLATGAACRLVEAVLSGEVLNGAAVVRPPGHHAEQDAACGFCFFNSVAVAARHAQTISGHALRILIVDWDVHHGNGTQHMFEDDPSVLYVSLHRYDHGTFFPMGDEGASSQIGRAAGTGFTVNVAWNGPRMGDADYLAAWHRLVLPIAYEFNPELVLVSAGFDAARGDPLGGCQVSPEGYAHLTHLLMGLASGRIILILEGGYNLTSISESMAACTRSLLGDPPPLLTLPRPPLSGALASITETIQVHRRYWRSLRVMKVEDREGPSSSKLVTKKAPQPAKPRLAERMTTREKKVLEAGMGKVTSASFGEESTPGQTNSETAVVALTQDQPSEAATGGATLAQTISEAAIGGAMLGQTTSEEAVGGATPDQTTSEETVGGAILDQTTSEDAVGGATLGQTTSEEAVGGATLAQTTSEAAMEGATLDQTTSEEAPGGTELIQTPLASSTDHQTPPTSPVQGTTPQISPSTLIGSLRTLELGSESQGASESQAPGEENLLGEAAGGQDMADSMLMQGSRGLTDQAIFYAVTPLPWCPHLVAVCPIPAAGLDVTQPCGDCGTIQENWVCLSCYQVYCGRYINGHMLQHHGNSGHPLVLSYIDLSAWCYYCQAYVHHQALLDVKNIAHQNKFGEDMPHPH
measurement-description: HDAC6 enzyme activity inhibition (HDAC Fluorimetric Drug Discovery Kit)
Assay type: biochemical
setup-conditions: HDAC1 IC50 / HDAC6 IC50

structure	HDAC6 selectivity (fold)
FC(F)c1nnc(-c2ccc(Cn3cc(-c4cncc(Cl)c4)nn3)nc2)o1	1474
CN1CCN(c2ccc(F)c(-c3cn(Cc4ccc(-c5nnc(C(F)F)o5)cc4)nn3)c2)CC1	1976
CN1CCC(Nc2cccc(-c3cn(Cc4ccc(-c5nnc(C(F)F)o5)cn4)nn3)c2)CC1	219
Cn1ncc2c(-c3cn(Cc4ccc(-c5nnc(C(F)F)o5)cn4)nn3)cccc21	2032
O=C(O)c1cccc(-c2cn(Cc3ccc(-c4nnc(C(F)F)o4)cc3)nn2)c1	122
CCOC(=O)Nc1cccc(-c2cn(Cc3ccc(-c4nnc(C(F)F)o4)cn3)nn2)c1	4132
FC(F)c1nnc(-c2ccc(Cn3cc(-c4ccc(N5CCOCC5)cc4)nn3)nc2)o1	979
O=C(O)c1ccc(-c2cn(Cc3ccc(-c4nnc(C(F)F)o4)cc3F)nn2)cc1	74
